Measured values drawn from patent US8735364B2 for this set.

tested on: mouse apolipoprotein B mRNA; experiment: Inhibition of mouse apolipoprotein B mRNA levels in primary hepatocytes, quantitative real-time PCR; assay type: cell-based; design: concentration or dose not given beside the values; settings: averages from two experiments
Oligonucleotides are written 5' to 3', each unit as a sugar letter and its base; * is a phosphorothioate linkage, no mark a phosphodiester; rarer units and linkages stand in square brackets, end groups in braces. Plain capitals give the bases only. e = 2'-O-(2-methoxyethyl) (MOE); [5mC] = 5-methylcytosine; d = 2'-deoxy (DNA)
Exam item: assign t to entries whose %INHIB of mouse apolipoprotein B mRNA levels is below 70% and f to entries at or above 70%. Note that a value of exactly 70% receives f.

Use these answered entries as a reference point.
147501 (antisense e[5mC]*eT*eT*eG*eG*dT*dT*dA*dA*dA*d[5mC]*dT*dA*dA*dT*eG*eG*eT*eG*e[5mC]) [compound 147501] | t
147776 (antisense eG*e[5mC]*eT*eT*eG*dA*dA*dG*dT*dT*d[5mC]*dA*dT*dT*dG*eA*eG*eA*eA*eT) [compound 147776] | f
147487 (antisense eT*eT*e[5mC]*e[5mC]*e[5mC]*dA*dG*dT*d[5mC]*dA*dG*d[5mC]*dT*dT*dT*eA*eG*eT*eG*eG) [compound 147487] | f
147485 (antisense eA*eT*eT*eT*eG*dG*dG*dA*d[5mC]*dG*dA*dA*dT*dG*dT*eA*eT*eG*e[5mC]*e[5mC]) [compound 147485] | t
147498 (antisense eT*eG*eG*eG*e[5mC]*dA*dA*d[5mC]*dG*dA*dT*dA*dT*d[5mC]*dT*eG*eA*eT*eT*eG) [compound 147498] | t

Q. Quick check: does 147475 (antisense eA*eT*eT*eG*eT*dA*dT*dG*dT*dG*dA*dG*dA*dG*dG*eT*eG*eA*eG*eG) [compound 147475] have %INHIB of mouse apolipoprotein B mRNA levels under 70%?
A. f

Q. Try this substance next: 147478 (antisense eT*e[5mC]*e[5mC]*eA*eG*dG*dA*dA*dT*dT*dG*dA*dG*d[5mC]*dT*eT*eG*eT*eG*e[5mC]) [compound 147478]
A. f

Q. Try this substance next: 147774 (antisense eT*eG*eG*e[5mC]*eT*dA*dG*dT*dT*dT*d[5mC]*dA*dA*dT*d[5mC]*e[5mC]*e[5mC]*e[5mC]*eT*eT) [compound 147774]
A. f

Q. Try this substance next: 147765 (antisense eA*eG*eG*e[5mC]*e[5mC]*d[5mC]*dA*dG*dT*dT*d[5mC]*d[5mC]*dA*dT*dG*eA*e[5mC]*e[5mC]*e[5mC]*eT) [compound 147765]
A. t

Q. Try this substance next: 147496 (antisense eA*e[5mC]*e[5mC]*eA*eT*dG*dG*dA*dA*dA*dA*d[5mC]*dT*dG*dG*e[5mC]*eA*eA*e[5mC]*eT) [compound 147496]
A. t

Q. Try this substance next: 147770 (antisense eG*eT*eG*eT*eT*dG*dA*dA*dT*d[5mC]*d[5mC]*d[5mC]*dT*dT*dG*eA*eA*eA*eT*e[5mC]) [compound 147770]
A. t

* * *

Kindly supply the reported Percent Inhibition of mouse apolipoprotein B mRNA levels values for the records listed here.
system: mouse apolipoprotein B mRNA; assay: Inhibition of mouse apolipoprotein B mRNA levels in primary hepatocytes, quantitative real-time PCR; assay type: cell-based; settings: 50 nM
Oligonucleotides are written 5' to 3', each unit as a sugar letter and its base; * is a phosphorothioate linkage, no mark a phosphodiester; rarer units and linkages stand in square brackets, end groups in braces. Plain capitals give the bases only. e = 2'-O-(2-methoxyethyl) (MOE); [5mC] = 5-methylcytosine; d = 2'-deoxy (DNA)
One number for each entry, in %.

A selection of reference data follows.
147764 (antisense eG*eT*e[5mC]*e[5mC]*e[5mC]*dT*dG*dA*dA*dG*dA*dT*dG*dT*d[5mC]*eA*eA*eT*eG*e[5mC]) [compound 147764] | 48
147483 (antisense eA*eT*eG*eT*e[5mC]*dA*dA*dT*dG*d[5mC]*d[5mC]*dA*d[5mC]*dA*dT*eG*eT*e[5mC]*e[5mC]*eA) [compound 147483] | 56
147769 (antisense e[5mC]*eA*eT*eG*e[5mC]*d[5mC]*dT*dG*dG*dA*dA*dG*d[5mC]*d[5mC]*dA*eG*eT*eG*eT*e[5mC]) [compound 147769] | 3

Q. Item 147776 (antisense eG*e[5mC]*eT*eT*eG*dA*dA*dG*dT*dT*d[5mC]*dA*dT*dT*dG*eA*eG*eA*eA*eT) [compound 147776] has what recorded Percent Inhibition of mouse apolipoprotein B mRNA levels?
A. 0

* * *

test system: human apolipoprotein B mRNA; assay: Inhibition of human apolipoprotein B mRNA levels in HepG2 cells, quantitative real-time PCR; format: cell-based; parameters: concentration or dose not given beside the values; details: averages from two experiments
Oligonucleotides are written 5' to 3', each unit as a sugar letter and its base; * is a phosphorothioate linkage, no mark a phosphodiester; rarer units and linkages stand in square brackets, end groups in braces. Plain capitals give the bases only. e = 2'-O-(2-methoxyethyl) (MOE); [5mC] = 5-methylcytosine; d = 2'-deoxy (DNA)
Kindly supply the reported %INHIB of human apolipoprotein B mRNA levels values for the records listed here.
Numbers only, in %.

Look up %INHIB of human apolipoprotein B mRNA levels for the entries below, preserving their order.
1. 147785 (antisense eG*e[5mC]*e[5mC]*e[5mC]*eG*d[5mC]*d[5mC]*dA*dG*d[5mC]*dA*dG*d[5mC]*dA*dG*e[5mC]*eA*eG*e[5mC]*eA) [compound 147785]
2. 147806 (antisense eA*eT*eG*eT*eG*dG*dT*dA*dA*d[5mC]*dG*dA*dG*d[5mC]*d[5mC]*e[5mC]*eG*eA*eA*eG) [compound 147806]

A.
29
100

Look up %INHIB of human apolipoprotein B mRNA levels for the entries below, preserving their order.
1. 147820 (antisense eG*eA*eA*e[5mC]*eA*d[5mC]*dA*dT*dA*dG*d[5mC]*d[5mC]*dG*dA*dA*eT*eG*e[5mC]*e[5mC]*eG) [compound 147820]
2. 147786 (antisense e[5mC]*eT*eT*eG*eA*dA*dT*d[5mC]*dA*dG*d[5mC]*dA*dG*dT*d[5mC]*e[5mC]*e[5mC]*eA*eG*eG) [compound 147786]
3. 147826 (antisense eT*e[5mC]*eA*eG*eG*dG*dT*dG*dA*dG*d[5mC]*d[5mC]*d[5mC]*dT*dG*eT*eG*eT*eG*eT) [compound 147826]
4. 147807 (antisense eG*eG*e[5mC]*eG*eT*dA*dG*dA*dG*dA*d[5mC]*d[5mC]*d[5mC]*dA*dT*e[5mC]*eA*e[5mC]*eA*eT) [compound 147807]
5. 147814 (antisense e[5mC]*e[5mC]*e[5mC]*eA*eA*dT*dA*dA*dG*dA*dT*dT*dT*dA*dT*eA*eA*e[5mC]*eA*eA) [compound 147814]

A.
1. 100
2. 34
3. 80
4. 25
5. 34

* * *

Tested on: human apolipoprotein B mRNA
Test: Inhibition of human apolipoprotein B mRNA levels in HepG2 cells, quantitative real-time PCR
Type: cell-based
Parameters: concentration or dose not given beside the values
Conditions: averages from two experiments
Experimental: The human hepatoblastoma cell line HepG2 was obtained from the American Type Culture Collection (Manassas, Va.). […] Quantitation of apolipoprotein B mRNA levels was determined by real-time quantitative PCR using the ABI PRISM™ 7700 Sequence Detection System (PE-Applied Biosystems, Foster City, Calif.) according to manufacturer's instructions. […]
Oligonucleotides are written 5' to 3', each unit as a sugar letter and its base; * is a phosphorothioate linkage, no mark a phosphodiester; rarer units and linkages stand in square brackets, end groups in braces. Plain capitals give the bases only. e = 2'-O-(2-methoxyethyl) (MOE); [5mC] = 5-methylcytosine; d = 2'-deoxy (DNA)
Exam item: assign t to entries whose %INHIB of human apolipoprotein B mRNA levels is below 30% and f to entries at or above 30%. Note that a value of exactly 30% receives f.

Use these answered entries as a reference point.
147796 (antisense eG*e[5mC]*eA*eG*e[5mC]*d[5mC]*dA*dG*dT*d[5mC]*dG*d[5mC]*dT*dT*dA*eT*e[5mC]*eT*e[5mC]*e[5mC]) [compound 147796] | t
147792 (antisense eG*eG*eA*e[5mC]*eA*d[5mC]*d[5mC]*dT*d[5mC]*dA*dA*dT*d[5mC]*dA*dG*e[5mC]*eT*eG*eT*eG) [compound 147792] | t
147823 (antisense eT*eG*e[5mC]*e[5mC]*e[5mC]*dT*dG*d[5mC]*dA*dG*d[5mC]*dT*dT*d[5mC]*dA*e[5mC]*eT*eG*eA*eA) [compound 147823] | t

We next turn to a different substance, shown below.
Q. Quick check: does 147788 (antisense eT*eT*eT*e[5mC]*eT*dG*dT*dT*dG*d[5mC]*d[5mC]*dA*d[5mC]*dA*dT*eT*eG*e[5mC]*e[5mC]*e[5mC]) [compound 147788] have %INHIB of human apolipoprotein B mRNA levels under 30%?
A. f
